MEASUREMENT TARGET: hNav1.7 (Homo sapiens (Human))
Sequence (Q15858 other isoform, or with tags, fused parts or gaps): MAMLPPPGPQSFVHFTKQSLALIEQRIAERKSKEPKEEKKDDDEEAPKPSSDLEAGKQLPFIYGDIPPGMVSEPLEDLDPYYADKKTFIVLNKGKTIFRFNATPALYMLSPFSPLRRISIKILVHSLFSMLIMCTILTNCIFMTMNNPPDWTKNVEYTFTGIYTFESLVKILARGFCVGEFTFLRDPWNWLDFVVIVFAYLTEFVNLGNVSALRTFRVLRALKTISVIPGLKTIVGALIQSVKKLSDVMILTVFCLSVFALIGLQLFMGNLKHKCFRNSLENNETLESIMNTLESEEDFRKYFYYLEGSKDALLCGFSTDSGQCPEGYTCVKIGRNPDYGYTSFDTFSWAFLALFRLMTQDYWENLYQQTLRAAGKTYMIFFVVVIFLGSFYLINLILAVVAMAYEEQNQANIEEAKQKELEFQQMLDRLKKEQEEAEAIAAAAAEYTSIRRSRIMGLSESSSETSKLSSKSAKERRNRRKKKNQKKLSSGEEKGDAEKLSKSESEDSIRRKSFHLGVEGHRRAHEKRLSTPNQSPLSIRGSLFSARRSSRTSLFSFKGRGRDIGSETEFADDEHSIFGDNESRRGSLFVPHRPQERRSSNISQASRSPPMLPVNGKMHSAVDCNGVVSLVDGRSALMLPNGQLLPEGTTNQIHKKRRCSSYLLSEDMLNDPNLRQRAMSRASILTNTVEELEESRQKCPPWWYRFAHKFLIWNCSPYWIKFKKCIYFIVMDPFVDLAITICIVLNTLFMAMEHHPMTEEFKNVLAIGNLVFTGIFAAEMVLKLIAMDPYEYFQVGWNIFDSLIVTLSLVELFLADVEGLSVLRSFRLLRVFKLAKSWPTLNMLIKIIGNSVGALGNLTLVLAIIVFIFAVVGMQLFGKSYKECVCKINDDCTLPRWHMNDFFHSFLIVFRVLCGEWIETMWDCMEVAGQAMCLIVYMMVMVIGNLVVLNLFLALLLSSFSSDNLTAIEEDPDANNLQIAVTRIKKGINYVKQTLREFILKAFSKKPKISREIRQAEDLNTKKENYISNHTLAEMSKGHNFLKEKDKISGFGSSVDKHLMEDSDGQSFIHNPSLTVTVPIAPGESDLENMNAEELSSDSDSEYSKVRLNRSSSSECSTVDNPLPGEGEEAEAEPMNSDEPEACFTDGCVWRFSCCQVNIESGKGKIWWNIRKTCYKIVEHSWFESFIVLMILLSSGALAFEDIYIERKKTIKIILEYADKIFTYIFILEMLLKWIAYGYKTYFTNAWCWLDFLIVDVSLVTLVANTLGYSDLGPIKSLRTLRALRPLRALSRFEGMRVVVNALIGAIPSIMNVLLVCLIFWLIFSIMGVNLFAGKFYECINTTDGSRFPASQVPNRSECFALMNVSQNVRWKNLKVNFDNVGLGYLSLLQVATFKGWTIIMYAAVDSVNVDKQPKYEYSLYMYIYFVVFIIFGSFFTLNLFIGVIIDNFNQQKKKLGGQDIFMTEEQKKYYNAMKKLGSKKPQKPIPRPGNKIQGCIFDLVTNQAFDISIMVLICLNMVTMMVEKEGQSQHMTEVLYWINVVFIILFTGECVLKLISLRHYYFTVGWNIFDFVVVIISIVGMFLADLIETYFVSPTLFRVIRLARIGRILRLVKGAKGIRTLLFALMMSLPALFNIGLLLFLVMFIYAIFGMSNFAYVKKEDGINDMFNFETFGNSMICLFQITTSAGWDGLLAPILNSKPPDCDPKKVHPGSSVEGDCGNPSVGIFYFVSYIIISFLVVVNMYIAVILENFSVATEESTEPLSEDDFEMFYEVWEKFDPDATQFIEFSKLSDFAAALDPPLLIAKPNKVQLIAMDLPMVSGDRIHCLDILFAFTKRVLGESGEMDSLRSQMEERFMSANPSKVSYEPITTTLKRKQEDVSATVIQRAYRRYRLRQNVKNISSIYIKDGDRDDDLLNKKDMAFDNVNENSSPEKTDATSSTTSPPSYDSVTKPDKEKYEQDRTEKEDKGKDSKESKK
ASSAY METHOD TEXT: Patch voltage clamp electrophysiology assay (EP), Syncropatch 384PE, CHO cells expressing Nav1.7
Assay type: cell-based
EXPERIMENTAL PARAMETERS: holding potential -50 mV; […] compound incubation; read-out: EP_SP hNav1.7 (Ex. 243B) IC50
pIC50: −log10 of the molar value. Where a name gives a salt, the structure may show the parent alone.

{"MOLECULE": "CC(C)C(=O)N1CC(N(C)[C@H]2CCCC[C@@H]2Nc2cc(F)c(S(=O)(=O)Nc3nccs3)cc2Cl)C1", "pIC50": 7.81}
{"MOLECULE": "CN(C)[C@H]1CCC(c2ccccc2F)C[C@@H]1Nc1cc(F)c(S(=O)(=O)Nc2nccs2)cc1Cl (stereo in doubt) [Example 173]", "pIC50": 8.59}
{"MOLECULE": "CN(CC(O)CF)[C@H]1CCCC[C@@H]1Nc1cc(F)c(S(=O)(=O)Nc2nccs2)cc1Cl (single isomer, unassigned) [Example 119]", "pIC50": 7.97}
{"MOLECULE": "CN(C)[C@H]1C[C@@H](C(F)(F)F)CC[C@@H]1Nc1cc(F)c(S(=O)(=O)Nc2ccncn2)cc1C1CC1", "pIC50": 7.72}
{"MOLECULE": "O=S(=O)(Nc1cccc(F)n1)c1cc(Cl)c(N[C@H]2CCCC[C@@H]2N2CC3CC3C2)cc1F (some centres unmarked)", "pIC50": 8.35}
{"MOLECULE": "CN(C)[C@@H]1Cc2ccccc2C[C@H]1Nc1cc(F)c(S(=O)(=O)Nc2nccs2)cc1Cl", "pIC50": 8.13}
{"MOLECULE": "CN(CCO)[C@H]1CCCC[C@@H]1Nc1cc(F)c(S(=O)(=O)Nc2cccc(F)n2)cc1C1CC1 [Example 128, formate]", "pIC50": 8.02}
{"MOLECULE": "CN1CC(N(CC(F)(F)F)[C@H]2CCCC[C@@H]2Nc2cc(F)c(S(=O)(=O)Nc3nccs3)cc2Cl)C1", "pIC50": 7.38}
{"MOLECULE": "CN(CC(O)C(F)F)[C@H]1CCCC[C@@H]1Nc1cc(F)c(S(=O)(=O)Nc2nccs2)cc1Cl (single isomer, unassigned) [Example 126]", "pIC50": 8.03}
{"MOLECULE": "CN(C(=O)C(C)(C)N(C)C)[C@H]1CCCC[C@@H]1Nc1cc(F)c(S(=O)(=O)Nc2nccs2)cc1Cl", "pIC50": 7.18}
{"MOLECULE": "CN(C)[C@@H]1CC2C(C[C@H]1Nc1cc(F)c(S(=O)(=O)Nc3nccs3)cc1Cl)C2(F)F (stereo in doubt) [Example 208]", "pIC50": 8.21}
{"MOLECULE": "CN(C)[C@H]1CC2C(C[C@@H]1Nc1cc(F)c(S(=O)(=O)Nc3nccs3)cc1Cl)C2(F)F (stereo in doubt) [Example 207]", "pIC50": 6.69}
{"MOLECULE": "O=S(=O)(Nc1nccs1)c1cc(Cl)c(N[C@H]2CCCC[C@@H]2N2CCC[C@H](CO)C2)cc1F [Example 168, formate]", "pIC50": 8.29}
{"MOLECULE": "CN1CC(N(C)[C@H]2CCCC[C@@H]2Nc2cc(F)c(S(=O)(=O)Nc3cccc(F)n3)cc2Cl)C1", "pIC50": 8.27}
{"MOLECULE": "CN(C)[C@H]1C[C@@H](C(F)(F)F)CC[C@@H]1Nc1cc(F)c(S(=O)(=O)Nc2ccncn2)cc1C1CCC1", "pIC50": 7.94}
{"MOLECULE": "O=S(=O)(Nc1ccncn1)c1cc(Cl)c(N[C@H]2CCCC[C@@H]2N2CCC[C@@](F)(CO)C2)cc1F", "pIC50": 6.91}
{"MOLECULE": "CN[C@H]1C[C@@H](c2cccc(C(F)(F)F)c2)CC[C@@H]1Nc1cc(F)c(S(=O)(=O)Nc2ccncn2)cc1Cl", "pIC50": 8.98}
{"MOLECULE": "CN(C)[C@H]1C[C@@H](c2cccc(C(F)(F)F)c2)CC[C@@H]1Nc1cc(F)c(S(=O)(=O)Nc2nccs2)cc1Cl [Example 129, formate]", "pIC50": 9.43}
{"MOLECULE": "CN(C)[C@H]1C[C@@H](C(F)(F)F)CC[C@@H]1Nc1cc(F)c(S(=O)(=O)Nc2ccncn2)cc1Cl", "pIC50": 7.82}
{"MOLECULE": "O=S(=O)(Nc1cccc(F)n1)c1cc(Cl)c(N[C@H]2CCCC[C@@H]2N2CCCCC2)cc1F", "pIC50": 8.34}
{"MOLECULE": "CN([C@H]1C[C@H](O)C1)[C@H]1CCCC[C@@H]1Nc1cc(F)c(S(=O)(=O)Nc2nccs2)cc1Cl [Example 157, formate]", "pIC50": 7.62}
{"MOLECULE": "CN(C)[C@@H]1CC(F)(F)CC[C@H]1Nc1cc(F)c(S(=O)(=O)Nc2nccs2)cc1Cl [Example 188, formate]", "pIC50": 6.16}
{"MOLECULE": "CN(C)[C@H]1C[C@H](c2cccc(C(F)(F)F)c2)CC[C@@H]1Nc1cc(F)c(S(=O)(=O)Nc2ccon2)cc1Cl", "pIC50": 8.08}
{"MOLECULE": "CN(C)[C@@H]1CN(c2cccc(C(F)(F)F)c2)CC[C@H]1Nc1cc(F)c(S(=O)(=O)Nc2ccncn2)cc1Cl [Example 234, formate]", "pIC50": 6.88}
{"MOLECULE": "C[N+](C)([O-])[C@H]1C[C@@H](c2cccc(C(F)(F)F)c2)CC[C@@H]1Nc1cc(F)c(S(=O)(=O)Nc2ccncn2)cc1Cl", "pIC50": 8.09}
{"MOLECULE": "CN1CC(C(=O)N(C)[C@H]2CCCC[C@@H]2Nc2cc(F)c(S(=O)(=O)Nc3nccs3)cc2Cl)C1", "pIC50": 8.17}
{"MOLECULE": "CN(C)[C@H]1C[C@@H](c2cccc(C(F)(F)F)c2)CC[C@@H]1Nc1cc(F)c(S(=O)(=O)Nc2ccncn2)cc1F", "pIC50": 9.38}
{"MOLECULE": "N#C[C@H]1CCCN([C@H]2CCCC[C@@H]2Nc2cc(F)c(S(=O)(=O)Nc3nccs3)cc2Cl)C1", "pIC50": 8.54}
{"MOLECULE": "CN(C)[C@@H]1C[C@H]2C[C@H]2C[C@H]1Nc1cc(F)c(S(=O)(=O)Nc2nccs2)cc1Cl", "pIC50": 6.95}

Every entry's value here was drawn from patent US10457654B2.
